# reported residual activity; entries follow
molecular target: MAPK14 (human); test: radiometric filter-binding kinase assay, Kinase HotSpot; conditions: compound 0.5 µM; ATP 10 µM
measurement.label: residual activity (%)

[[record]]
smiles_notation = "COc1cc2ncnc(Nc3ccc(F)c(Cl)c3)c2cc1OCCCN1CCOCC1"
measurement_label = "residual activity"
recorded_value = 74.6

[[record]]
smiles_notation = "O=C1Nc2ccccc2/C1=C\\c1c(Cl)[nH]c2ccccc12"
measurement_label = "residual activity"
recorded_value = 101

[[record]]
smiles_notation = "Cc1ccc(NC(=O)c2ccc(CN3CCN(C)CC3)cc2)cc1Nc1nc(-c2cccnc2)cs1"
measurement_label = "residual activity"
recorded_value = 98.1

[[record]]
smiles_notation = "O=C(Nc1ccc(Cl)cc1)c1ccccc1NCc1ccncc1"
measurement_label = "residual activity"
recorded_value = 128


====

target: CDK4 CCND3 (human) (UniProt P30281+P11802); assay: radiometric filter-binding kinase assay, Kinase HotSpot; conditions: compound 0.5 µM; ATP 10 µM
Sequence (P11802 whole entry, looked up): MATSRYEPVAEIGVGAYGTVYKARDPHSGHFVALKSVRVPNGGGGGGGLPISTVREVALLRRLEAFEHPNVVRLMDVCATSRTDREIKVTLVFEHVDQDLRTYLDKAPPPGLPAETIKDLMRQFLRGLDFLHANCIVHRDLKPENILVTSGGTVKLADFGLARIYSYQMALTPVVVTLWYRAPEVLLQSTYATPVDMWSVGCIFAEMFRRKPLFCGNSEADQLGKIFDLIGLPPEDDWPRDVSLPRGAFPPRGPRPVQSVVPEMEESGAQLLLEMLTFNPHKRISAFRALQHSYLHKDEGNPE
Sequence (P30281 whole entry, looked up): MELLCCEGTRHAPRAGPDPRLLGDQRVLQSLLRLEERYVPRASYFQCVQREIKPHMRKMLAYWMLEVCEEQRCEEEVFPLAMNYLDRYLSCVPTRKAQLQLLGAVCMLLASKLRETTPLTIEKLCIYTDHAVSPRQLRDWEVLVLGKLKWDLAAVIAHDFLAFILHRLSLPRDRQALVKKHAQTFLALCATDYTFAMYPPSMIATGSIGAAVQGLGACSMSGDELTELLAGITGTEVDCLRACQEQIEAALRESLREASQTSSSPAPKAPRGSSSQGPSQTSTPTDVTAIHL
measurement.label: residual activity (%)

[[record]]
smiles_notation = "O=C(Nc1ccc(Cl)cc1)c1ccccc1NCc1ccncc1"
measurement_label = "residual activity"
recorded_value = 94.2

[[record]]
smiles_notation = "Clc1ccc(Nc2nnc(Cc3ccncc3)c3ccccc23)cc1"
measurement_label = "residual activity"
recorded_value = 102

[[record]]
smiles_notation = "CCCNC(=O)Nc1ccc(Oc2ncnc3cc(OC)c(OC)cc23)cc1Cl"
measurement_label = "residual activity"
recorded_value = 101

[[record]]
smiles_notation = "O=c1cc(N2CCNCC2)oc2c(-c3ccccc3)cccc12"
measurement_label = "residual activity"
recorded_value = 101

[[record]]
smiles_notation = "CC(C)n1cnc2c(Nc3cccc(Cl)c3)nc(NCCO)nc21"
measurement_label = "residual activity"
recorded_value = 93.3

[[record]]
smiles_notation = "O=C1Nc2cc(Br)ccc2/C1=C1/Nc2ccccc2/C1=N\\O"
measurement_label = "residual activity"
recorded_value = 75.9

[[record]]
smiles_notation = "COc1cc2nccc(Oc3ccc(NC(=S)NC(=O)c4ccccc4C)cc3)c2cc1OC"
measurement_label = "residual activity"
recorded_value = 93.4

[[record]]
smiles_notation = "C#Cc1cccc(Nc2ncnc3cc(OCCOC)c(OCCOC)cc23)c1"
measurement_label = "residual activity"
recorded_value = 103


====

molecular target: NEK4 (human) (UniProt P51957); assay: radiometric filter-binding kinase assay, Kinase HotSpot; conditions: compound 0.5 µM; ATP 10 µM
Sequence (P51957 whole entry, looked up): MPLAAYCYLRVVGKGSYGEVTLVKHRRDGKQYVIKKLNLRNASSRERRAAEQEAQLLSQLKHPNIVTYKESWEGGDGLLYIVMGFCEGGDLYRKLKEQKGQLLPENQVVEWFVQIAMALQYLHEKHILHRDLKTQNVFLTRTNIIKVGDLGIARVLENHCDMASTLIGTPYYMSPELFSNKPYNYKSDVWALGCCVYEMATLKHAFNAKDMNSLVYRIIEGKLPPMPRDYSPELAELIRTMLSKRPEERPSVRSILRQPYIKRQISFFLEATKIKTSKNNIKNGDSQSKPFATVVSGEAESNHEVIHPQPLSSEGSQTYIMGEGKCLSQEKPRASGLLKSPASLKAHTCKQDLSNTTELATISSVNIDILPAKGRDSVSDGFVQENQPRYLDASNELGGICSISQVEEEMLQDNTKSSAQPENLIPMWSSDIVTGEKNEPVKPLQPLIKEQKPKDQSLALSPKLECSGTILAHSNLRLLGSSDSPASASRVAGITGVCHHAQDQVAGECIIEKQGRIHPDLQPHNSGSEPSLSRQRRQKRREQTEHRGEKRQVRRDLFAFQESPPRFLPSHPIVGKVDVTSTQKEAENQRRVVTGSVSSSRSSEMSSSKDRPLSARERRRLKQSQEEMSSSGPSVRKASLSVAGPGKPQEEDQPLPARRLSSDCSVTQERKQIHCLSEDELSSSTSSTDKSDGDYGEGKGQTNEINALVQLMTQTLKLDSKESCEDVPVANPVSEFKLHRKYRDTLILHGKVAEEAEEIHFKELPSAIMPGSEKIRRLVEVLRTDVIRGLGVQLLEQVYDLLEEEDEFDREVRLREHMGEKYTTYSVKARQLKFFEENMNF
Entries whose residual activity is below 90% take Condition met; entries at or above 90% take Condition not met.

[[record]]
compound = "O=C(Nc1ccc(Cl)cc1)c1ccccc1NCc1ccncc1"
class = "Condition met"

[[record]]
compound = "CS(=O)c1ccc(-c2nc(-c3ccc(F)cc3)c(-c3ccncc3)[nH]2)cc1 (centres undefined)"
class = "Condition not met"

[[record]]
compound = "O=C1Nc2ccccc2/C1=C\\c1c(Cl)[nH]c2ccccc12"
class = "Condition not met"

[[record]]
compound = "Oc1ccc(-c2nc(-c3ccc(F)cc3)c(-c3ccncc3)[nH]2)cc1"
class = "Condition not met"

[[record]]
compound = "COc1ccc(-c2cnc3c(-c4ccsc4)cnn3c2)cc1"
class = "Condition met"

[[record]]
compound = "O=C1Cc2c([nH]c3ccc([N+](=O)[O-])cc23)-c2ccccc2N1"
class = "Condition not met"

[[record]]
compound = "CCN1/C(=C/C(C)=O)Sc2ccc(OC)cc21"
class = "Condition not met"

[[record]]
compound = "Clc1ccc(Nc2nnc(Cc3ccncc3)c3ccccc23)cc1"
class = "Condition not met"

[[record]]
compound = "CC(C)(C)c1nc2c3ccc(F)cc3c3c(=O)[nH]ccc3c2[nH]1"
class = "Condition met"

[[record]]
compound = "CSc1nc(-c2ccc(F)cc2)c(-c2ccnc(NC(C)c3ccccc3)c2)[nH]1 (centres undefined)"
class = "Condition not met"

